# System: HT29 colon
# ASSAY_DETAILS: NCI tumour cell line growth inhibition, 48 h
Provide the reported GI50 of each item.

Quick request: GI50 for each listed item, please.
1. N#Cc1cnc2cc(OC[C@@H](O)CO)c(NC(=O)C3CCCC3)cc2c1Nc1ccc(OCc2cccc(F)c2)c(Cl)c1
2. CN(C)C(=O)OCc1nc2c(N3CCOCC3)nc(-c3ccccc3)nc2n1C
3. O=[N+]([O-])c1cccc(-c2nc(-c3ccc(Cl)cc3Cl)cn2-c2ccccc2)c1
4. Cc1ccc(C(=O)NCCCOc2ccc(N3C(N)=NC(N)=NC3(C)C)cc2Cl)cc1S(=O)(=O)F

result:
1: 1390 nM; 2: 476 nM; 3: 1250 nM; 4: 6610 nM

Sourced from PubChem BioAssay (NCI)
